This listing pairs binders with measured IC50 CD23.
TARGET UNDER TEST: recombinant human IL-13 (human, UniProt P35225 35-146)
Sequence (P35225 35-146 limits assumed): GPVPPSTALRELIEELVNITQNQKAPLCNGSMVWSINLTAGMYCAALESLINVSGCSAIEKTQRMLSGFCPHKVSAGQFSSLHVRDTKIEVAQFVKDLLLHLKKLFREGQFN
ASSAY: cell-based or functional assay
Numbers only here, please. The scale is nM.

Solved entries:
BINDER	RESULT UNITS	EXPERIMENTAL RESULT
BDG38.096 (antibody, V domains shown, IgG1) VH: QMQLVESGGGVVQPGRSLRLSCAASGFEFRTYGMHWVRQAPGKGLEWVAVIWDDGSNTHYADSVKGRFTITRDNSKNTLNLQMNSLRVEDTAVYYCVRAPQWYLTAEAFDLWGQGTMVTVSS VL: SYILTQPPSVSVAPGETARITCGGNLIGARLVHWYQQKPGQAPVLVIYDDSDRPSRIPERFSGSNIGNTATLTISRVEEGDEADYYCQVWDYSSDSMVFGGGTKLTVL	nM	0.25
BDG38.092 (antibody, V domains shown, IgG1) VH: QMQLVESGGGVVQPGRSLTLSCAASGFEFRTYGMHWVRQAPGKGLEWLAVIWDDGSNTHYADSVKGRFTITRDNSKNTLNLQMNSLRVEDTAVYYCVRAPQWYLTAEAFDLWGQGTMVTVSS VL: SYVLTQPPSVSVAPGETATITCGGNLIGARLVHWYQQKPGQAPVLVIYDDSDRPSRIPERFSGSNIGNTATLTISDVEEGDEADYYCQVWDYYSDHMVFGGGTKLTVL	nM	0.0675

// next entry
In: Please look at this binder and report its IC50 CD23: BDG38.137 (antibody, V domains shown, IgG1) VH: QMQLVESGGGVVQPGQSLRLSCAASGFEFRTYGMHWVRQAPGKGLEWVAVIWDDGSNTHYADSVKGRFTITRDNSKNTLNLQMNSLRAEDTAVYYCVRAPQWYLTAEAFDLWGQGTMVTVSS VL: SYVLTQPPSVSVAPGETATITCGGNLIGARLVHWYQQKPGQAPVLVIYDDSDRPSHIPERFSGSNSGNTATLTISRVEAGDEADYYCQVWDYSADTMVFGGGTKLTVL
Out: 0.373

Hey, just so you know, these numbers are from patent US20240059769A1.
